# inhibition at 0.5 µM listing for each entry below
Molecular target: Epidermal Growth Factor Receptor Kinase (EGF-R) (Homo sapiens, UniProt P00533)
Construct: containing the EGFR cDNA encoding amino acids 645 - 1186 preceded by Met-Ala-(His)6; Met-Ala-(His)6 (N); made in house; host or cells: Sf9 insect cells (baculovirus vHcEGFR52)
Sequence (P00533 669-1210): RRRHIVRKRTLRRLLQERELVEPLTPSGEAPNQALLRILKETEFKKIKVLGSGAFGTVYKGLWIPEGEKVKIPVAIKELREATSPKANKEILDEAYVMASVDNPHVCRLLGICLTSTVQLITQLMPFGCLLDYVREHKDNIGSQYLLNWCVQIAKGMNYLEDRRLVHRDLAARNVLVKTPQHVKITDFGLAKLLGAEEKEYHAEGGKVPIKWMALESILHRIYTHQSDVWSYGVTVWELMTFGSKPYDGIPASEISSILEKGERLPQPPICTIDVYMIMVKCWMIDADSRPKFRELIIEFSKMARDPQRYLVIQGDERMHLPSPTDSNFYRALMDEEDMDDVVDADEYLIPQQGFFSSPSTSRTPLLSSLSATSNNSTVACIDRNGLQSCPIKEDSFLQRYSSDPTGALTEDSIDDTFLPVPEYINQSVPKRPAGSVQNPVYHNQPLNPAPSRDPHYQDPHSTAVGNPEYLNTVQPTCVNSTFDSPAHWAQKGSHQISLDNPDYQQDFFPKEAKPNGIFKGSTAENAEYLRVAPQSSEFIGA
Assay: Inhibition of Epidermal Growth Factor Receptor Kinase (EGF-R) using recombinant enzyme
Format: biochemical
Conditions: 0.5 µM concentration of test compound
Entry rule: numbers only, all in %.

In [3]: df
Out[3]:
                                smiles_data  quantitative_result
0  N#Cc1cnc2cc3c(cc2c1Nc1ccc(F)c(Cl)c1)N(CCCCCl)CCO3                   73
1  N#Cc1cnc2cc3c(cc2c1Nc1ccc(F)c(Cl)c1)NCCO3                 35.5
2  CN(C)C/C=C/C(=O)N1CCOc2cc3ncc(C#N)c(Nc4ccc(F)c(Cl)c4)c3cc21                 56.5
3  CN(C)CCCCN1CCOc2cc3ncc(C#N)c(Nc4ccc(F)c(Cl)c4)c3cc21                 53.5

With those in mind, consider the next compound.
(Q) Return reported inhibition at 0.5 µM; argument: CN(C)CCCC(=O)N1CCOc2cc3ncc(C#N)c(Nc4ccc(F)c(Cl)c4)c3cc21
(A) 57.8

Ref: patent EP1268487B1
